target or test system: human recombinant ROCK II (Homo sapiens, UniProt O75116)
Construct: N-terminal His6-tagged recombinant human ROCK-II residues 11-552; His6 (N); purchased Millipore GmbH, Schwalbach, Germany
Sequence (O75116 11-552): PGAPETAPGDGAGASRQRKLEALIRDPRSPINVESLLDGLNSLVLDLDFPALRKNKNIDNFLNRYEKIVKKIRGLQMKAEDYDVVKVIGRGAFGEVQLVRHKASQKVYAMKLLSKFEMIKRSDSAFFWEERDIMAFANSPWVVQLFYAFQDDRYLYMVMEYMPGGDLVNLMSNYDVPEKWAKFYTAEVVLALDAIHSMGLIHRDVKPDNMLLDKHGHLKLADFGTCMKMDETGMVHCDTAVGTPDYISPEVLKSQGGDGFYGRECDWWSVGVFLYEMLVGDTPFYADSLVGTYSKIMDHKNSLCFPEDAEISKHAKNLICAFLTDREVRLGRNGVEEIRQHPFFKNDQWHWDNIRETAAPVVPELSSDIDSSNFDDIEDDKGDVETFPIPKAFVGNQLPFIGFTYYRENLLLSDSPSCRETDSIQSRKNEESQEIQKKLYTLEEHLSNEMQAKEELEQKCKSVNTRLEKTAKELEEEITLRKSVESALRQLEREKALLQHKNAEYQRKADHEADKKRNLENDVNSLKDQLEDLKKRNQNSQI
procedure details: Determination of Rho kinase inhibition (Caliper peptide phosphorylation assay)
Format: biochemical
details: 60 min at 32° C., negative decadal logarithm of the IC50
property: pIC50

A selection of reference data follows.
> print(dat)
                                   molecule             test.value
1  CCCC(N)[C@]1(c2ccccc2)CC[C@H](Oc2cc3cc[nH]c(=O)c3cc2Cl)CC1 (stereo partly shown)    +++++++ (8.0≦pIC50)
2  CCC(N)[C@]1(c2ccccc2)CC[C@H](Oc2cc3ccncc3cc2Cl)CC1 (stereo partly shown)  +++++ (6.0≦pIC50<7.0)
3  CCC(N)[C@]1(c2ccccc2)CC[C@H](Oc2ccc3cnccc3c2Cl)CC1 (stereo partly shown)  +++++ (6.0≦pIC50<7.0)
4  CCOc1cccc([C@]2(C(N)CC)CC[C@@H](Oc3cc4cc[nH]c(=O)c4cc3Cl)CC2)c1 (stereo partly shown)    +++++++ (8.0≦pIC50)

Query: Recorded pIC50 of CC(N)C[C@]1(c2ccc(F)cc2)CC[C@H](Oc2cc3cc[nH]c(=O)c3cc2Cl)CC1 (stereo partly shown) , please.
Response: ++++++ (7.0≦pIC50<8.0)

Query: Recorded pIC50 of NC(c1ccccc1)C1CCC(Oc2cc3cc[nH]c(=O)c3cc2Cl)CC1 (stereo not shown) , please.
Response: +++++ (6.0≦pIC50<7.0)

Query: Recorded pIC50 of CCCC(N)[C@]1(c2ccccc2)CC[C@@H](Oc2cc3cc[nH]c(=O)c3cc2Cl)CC1 (stereo partly shown) , please.
Response: +++++ (6.0≦pIC50<7.0)

###

target or test system: recombinant human PKA (Homo sapiens)
Construct: Active recombinant human PKA (residues 1-351, N-terminal His-tag); His-tag (N); purchased Invitrogen, Karlsruhe, Germany
procedure details: Determination of Protein Kinase A inhibition (Caliper peptide phosphorylation assay)
Assay type: biochemical
details: recombinant human PKA versus ROCK II
property: Selectivity against PKA

Query: State its Selectivity against PKA on recombinant human PKA (Homo sapiens): CCC(N)(CC)C1CCC(Oc2cc3cc[nH]c(=O)c3cc2Cl)CC1 (single isomer, unassigned) [Example 122]
Response: >300

Query: State its Selectivity against PKA on recombinant human PKA (Homo sapiens): CCC(N)C1CCC(Oc2cc3cc[nH]c(=O)c3cc2Cl)CC1 (single isomer, unassigned) [Example 129]
Response: >100

Query: State its Selectivity against PKA on recombinant human PKA (Homo sapiens): CC(N)(c1ccccc1)C1CCC(Oc2cc3cc[nH]c(=O)c3cc2Cl)CC1 (stereo not shown) [Example 34]
Response: >300

Query: State its Selectivity against PKA on recombinant human PKA (Homo sapiens): NC(C1CCC(Oc2cc3cc[nH]c(=O)c3cc2Cl)CC1)C1CC1 (single isomer, unassigned) [Example 131]
Response: >10

Query: State its Selectivity against PKA on recombinant human PKA (Homo sapiens): CCC(N)[C@]1(c2ccccc2F)CC[C@H](Oc2cc3cc[nH]c(=O)c3cc2Cl)CC1 (stereo partly shown) [Example 9]
Response: >1000

Query: State its Selectivity against PKA on recombinant human PKA (Homo sapiens): CC(C)C(N)[C@]1(c2ccccc2)CC[C@@H](Oc2cc3cc[nH]c(=O)c3cc2Cl)CC1 (stereo partly shown) [Example 19]
Response: >100

Query: State its Selectivity against PKA on recombinant human PKA (Homo sapiens): CCCC(N)[C@]1(c2ccccc2)CC[C@@H](Oc2cc3cc[nH]c(=O)c3cc2Cl)CC1 (stereo partly shown) [Example 14]
Response: >100
